details: pH 2.7
Marks after values point to notes of the source that are not given here.
assay-readout: Log P

CCOC(=O)C(C#N)=C(NC1CCC1)c1ccnc(C(F)(F)F)c1Cl [Compound 1621] : 3.78^[a]

Request: For the molecule C#CC(C)NC(=C(C#N)C(=O)OC)c1cccnc1Cl (stereo not drawn) [Compound 1045] , report Log P.
Response: 2.14^[a]

Request: Identify the reported Log P for the following entry. CCOC(=O)C(C#N)=C(NCC(C)c1nccs1)c1cccnc1Cl (stereo not drawn) [Compound 331]
Response: 2.57^[a]

Request: Specify Log P for CCCC(COC)NC(=C(C#N)C(=O)OCC)c1cccnc1Cl (stereo not drawn) [Compound 1375] and stop.
Response: 3.31^[a]

Request: Read the entry CCOC(=O)C(C#N)=C(NC(C)COCc1ccccc1Cl)c1cn(C)nc1C(F)F (racemic) [Compound 1241] and write its reported Log P.
Response: 3.83^[a]

Request: Return Log P (reported value) for this molecule: CCOC(=O)C(C#N)=C(NC(C)C(=O)NC)c1ccncc1Cl (stereo not drawn) [Compound 723]
Response: 1.78^[a]

Request: Determine its reported Log P: CCOC(=O)C(C#N)=C(NC(C)C(C)C)c1ccnc(Br)c1Cl (stereo not drawn) [Compound 1209]
Response: 3.94^[a]

Request: Assign Log P to the following record: CCOC(=O)C(C#N)=C(NC1CC(C)C1)c1cccnc1Cl (stereo not drawn) [Compound 1073]
Response: 3.3^[a]

Request: Tell me its Log P given CCC#CC(C)(C)NC(=C(C#N)C(=O)OC)c1cccnc1Cl [Compound 1025] as the entry.
Response: 2.98^[a]
